tested on: NCI-H23 lung; assay: NCI-60 one-dose screen, 48 h; details: 10 µM unless noted
About 83,000 compounds went through this panel and 20% of them were active in at least one assay; those are over-represented in the sample as a whole. The source made the active and inactive calls. How the source made its calls: active means growth percent below 10; inactive means the rest.
Classes to choose from: 1.0 for active, 0.0 for inactive

These recorded examples may help you get a feel for the data.
1. Cn1ccnc1C(=O)/C=C/c1ccc(CC(=O)Nc2ccc(S(F)(F)(F)(F)F)cc2)cc1    1.0
2. COC(=O)[C@H](C)NC(=O)[C@@H](OC)[C@@H]1Cc2cc3cc(OC4CC(OC5CC(O)C(O)C(C)O5)C(O)C(C)O4)c(C)c(O)c3c(O)c2C(=O)[C@H]1OC1CC(OC2CC(OC3CC(C)(O)C(O)C(C)O3)C(O)C(C)O2)C(O)C(C)O1 (stereo partly drawn)    1.0

Query compound follows.
Dear all, I need the recorded test outcome for Cc1cc(N2CCOCC2)nc(N(CCNc2ccnc3cc(Cl)ccc23)Cc2cccs2)n1 , thank you.
0.0

----------
system: SK-MEL-5 melanoma; test: NCI-60 one-dose screen, 48 h (100 = growth as untreated, 0 = no growth, -100 = all killed); details: 10 µM unless noted
The panel holds about 83,000 compounds, 20% with a hit somewhere; the sample as a whole holds those more often.
readout-kind: growth (%)
Write the number in % without appending the unit.

Sample records with growth:
1. COc1ccc(C2OC(c3cc(-c4cc5ccccc5o4)nn3-c3ccccc3)=NN2C(C)=O)cc1 (stereo not given)    8.69
2. CCCC(=O)OCC1OC(n2cnc3c(=S)nc[nH]c32)C(OC(=O)CCC)C1OC(=O)CCC (stereo not given)    38.6
3. CCc1ccc(C2=C(O)C(=O)C(c3ccc(CC)cc3)=C(O)C2=O)cc1    -58.7
4. CC1(O)CC(c2nc(-c3ccc4ccc(-c5ccccc5)nc4c3)c3c(N)nccn23)C1 (stereo not given)    15

Now, please, on to the next molecule.
Reported growth, molecule Nc1nc(N)c2nc(-c3cccc(O)c3)c(-c3cccc(O)c3)nc2n1 : ____
89.1

----------
test system: A498 renal; experiment: NCI-60 one-dose screen, 48 h; settings: 10 µM unless noted
This is part of a sample that, as a whole, favours compounds with a hit. Of some 83,000 tested, about 20% had one in any assay. Activity calls are given as the source filed them. Rule for the calls: active = growth percent below 10; inactive = the rest.
Classes to choose from: active, inactive

Dear all, I need the recorded test outcome for CNC(=O)c1cc(Oc2ccc(NC(=O)Nc3cc(C(C)(C)C)nn3-c3ccc4ncccc4c3)c(F)c2)ccn1 , thank you.
active

Dear all, I need the recorded test outcome for Cc1ccc(NC(=O)c2ccc(CN3CC[C@H](N(C)C)C3)c(C(F)(F)F)c2)cc1Nc1nccc(-c2cncnc2)n1 , thank you.
active

Dear all, I need the recorded test outcome for COc1cnc2c(c1)C(=O)c1c-2n(CCCNC2=NCCS2)c(=O)c2cc(Cl)ccc12 , thank you.
active

Dear all, I need the recorded test outcome for CC(=O)C1=C(C)NC(SCc2nnc(-c3ccc(C)cc3)o2)=NC1c1ccc(F)cc1 (centres undefined) , thank you.
inactive

Dear all, I need the recorded test outcome for Cc1cc(C(=O)NOCCO)c(Nc2ccc(I)cc2F)n(C)c1=O , thank you.
active

Dear all, I need the recorded test outcome for Cc1ccc(-c2cc3c(SCC(=O)Nc4cc(C(F)(F)F)ccc4Cl)nccn3n2)cc1 , thank you.
inactive

Dear all, I need the recorded test outcome for CCNC(=O)Nc1nc2ccc(Oc3ccnc(C(=O)NC)c3)cc2s1 , thank you.
inactive

Dear all, I need the recorded test outcome for Fc1ccc(NCc2cn(-c3ccccc3)nc2-c2ccc(OCc3ccccc3)cc2)cc1Cl , thank you.
inactive

Dear all, I need the recorded test outcome for CC(=O)Nc1cccc(-n2c(=O)n(C3CC3)c(=O)c3c(Nc4ccc(I)cc4F)n(C)c(=O)c(C)c32)c1 , thank you.
active
